protocolDescription: PK study and oral bioavailability, rat
Assay type: in vivo
details: PO 25 mg/kg, plasma 0 to 6 h, read-out: PO Administration (25 mg/kg) C0

compound | C0
Cc1c(NS(=O)(=O)c2c(C(C)C)cc(C(C)C)cc2C(C)C)cc(C(F)(F)F)cc1C(F)(F)F [Compound 2] | 27600 ng/mL

----------
protocolDescription: Plasma and tumor concentrations at sacrifice in MDA-MB-231 xenograft mice
Format: in vivo, Mouse/nude
details: nude, mouse, plasma, intraperitoneal; treated until the end: Yes; 50/25 mg/kg; sacrificed day 45, 2 h after final dose; read-out: Ave. Plasma Conc.

compound | unitName | concentration at 2 h
CC(C)c1cc(C(C)C)c(S(=O)(=O)Nc2cc(C(F)(F)F)cc(C(F)(F)F)c2)c(C(C)C)c1 [Compound 1] | nM | 2330

----------
protocolDescription: PK study and oral bioavailability, mouse
Type: in vivo
details: IV 5 mg/kg, plasma 0 to 6 h, read-out: IV Administration (5 mg/kg) T½ (converted)
endpointName: half-life (min)

smiles | experimentalResult
CC(C)c1cc(C(C)C)c(S(=O)(=O)Nc2cc(C(F)(F)F)cc(C(F)(F)F)c2)c(C(C)C)c1 | 126
Cc1c(NS(=O)(=O)c2c(C(C)C)cc(C(C)C)cc2C(C)C)cc(C(F)(F)F)cc1C(F)(F)F | 174

----------
protocolDescription: PK study and oral bioavailability, rat
Assay type: in vivo
details: PO 25 mg/kg, plasma 0 to 6 h, read-out: PO Administration (25 mg/kg) T½

smiles | half-life
Cc1c(NS(=O)(=O)c2c(C(C)C)cc(C(C)C)cc2C(C)C)cc(C(F)(F)F)cc1C(F)(F)F | > 6 h

----------
protocolDescription: PK study and oral bioavailability, rat
Assay type: in vivo
details: IV 5 mg/kg, plasma 0 to 6 h, read-out: IV Administration (5 mg/kg) T½ (converted)

smiles | half-life
Cc1c(NS(=O)(=O)c2c(C(C)C)cc(C(C)C)cc2C(C)C)cc(C(F)(F)F)cc1C(F)(F)F | 1.6 h

----------
protocolDescription: PK study and oral bioavailability, rat
Type: in vivo
details: IV 5 mg/kg, plasma 0 to 6 h, read-out: IV Administration (5 mg/kg) C0
endpointName: C0 (µg/mL)

smiles | experimentalResult
Cc1c(NS(=O)(=O)c2c(C(C)C)cc(C(C)C)cc2C(C)C)cc(C(F)(F)F)cc1C(F)(F)F | 68.9

----------
Listed here are molecules together with their documented IC50.
Test system: triple negative breast cancer cell line MDA-MB-468
protocolDescription: Cell-based IC50 assay, adherent cells, MDA-MB-468
details: Homo sapiens, 72 hours, CellTiter 96 Aqueous One, metabolically active cells decreased by 50%

molecule | inequalitySign | IC50, µM
CC(=O)Nc1ccc(S(=O)(=O)Nc2cc(C(F)(F)F)cc(C(F)(F)F)c2)cc1 [Reference compound 13] | > | 20
Cc1cc(C(C)(C)C)cc(C)c1S(=O)(=O)Nc1cc(C(F)(F)F)cc(C(F)(F)F)c1Cl [Compound 10] | = | 3
O=S(=O)(Nc1cc(C(F)(F)F)cc(C(F)(F)F)c1)c1cc(C(F)(F)F)cc(C(F)(F)F)c1 [Reference compound 1] | > | 20
CC(C)c1cc(C(C)C)c(S(=O)(=O)Nc2cc(C(F)(F)F)cc(C(F)(F)F)c2Br)c(C(C)C)c1 [Compound 5] | = | 5
N#Cc1ccc(NS(=O)(=O)c2cc(C(F)(F)F)cc(C(F)(F)F)c2)cc1Cl [Reference compound 3] | > | 20
Cc1cc(C)c(S(=O)(=O)Nc2cc(C(F)(F)F)cc(C(F)(F)F)c2)c(C)c1 [Reference compound 4] | = | 17
Cc1ccc(C)c(NS(=O)(=O)c2c(C(C)C)cc(C(C)C)cc2C(C)C)c1 [Reference compound 8] | > | 20
CC(C)c1cc(C(C)C)c(S(=O)(=O)Nc2cc(C(F)(F)F)cc(C(F)(F)F)c2Cl)c(C(C)C)c1 [Compound 3] | = | 4.5

----------
Test system: triple negative breast cancer cell line MDA-MB-468
protocolDescription: Cell-based IC50 assay, adherent cells, MDA-MB-468
details: Homo sapiens, 72 hours, CellTiter 96 Aqueous One, metabolically active cells decreased by 50%
Sorting guide: entries reporting IC50 beneath 5 µM go in the met pile, the rest go in the not met pile.

molecule | targetOfAssay | cat
Cc1c(Cl)cccc1NS(=O)(=O)c1c(C(C)C)cc(C(C)C)cc1C(C)C [Reference compound 12] | triple negative breast cancer cell line MDA-MB-468 | not met
CC(C)c1cc(C(C)C)c(NS(=O)(=O)c2cc(C(F)(F)F)cc(C(F)(F)F)c2)c(C(C)C)c1 [Compound 4] | triple negative breast cancer cell line MDA-MB-468 | not met
CC(C)c1cc(C(C)C)c(S(=O)(=O)Nc2cccc(F)c2)c(C(C)C)c1 [Reference compound 9] | triple negative breast cancer cell line MDA-MB-468 | not met
O=S(=O)(Nc1cc(C(F)(F)F)cc(C(F)(F)F)c1)c1c(Cl)cccc1Cl [Reference compound 2] | triple negative breast cancer cell line MDA-MB-468 | not met
CCc1cccc(CC)c1S(=O)(=O)Nc1cc(C(F)(F)F)cc(C(F)(F)F)c1C [Compound 7] | triple negative breast cancer cell line MDA-MB-468 | met
CCc1cccc(CC)c1S(=O)(=O)Nc1cc(C(F)(F)F)cc(C(F)(F)F)c1 [Compound 8] | triple negative breast cancer cell line MDA-MB-468 | met
Cc1c(NS(=O)(=O)c2c(C(C)C)cc(C(C)C)cc2C(C)C)cc(C(F)(F)F)cc1C(F)(F)F [Compound 2] | triple negative breast cancer cell line MDA-MB-468 | met
